Known pIC50 of a selection of compounds
Target: 15-PGDH/HPGD (Homo sapiens)
Sequence (P15428 1-266): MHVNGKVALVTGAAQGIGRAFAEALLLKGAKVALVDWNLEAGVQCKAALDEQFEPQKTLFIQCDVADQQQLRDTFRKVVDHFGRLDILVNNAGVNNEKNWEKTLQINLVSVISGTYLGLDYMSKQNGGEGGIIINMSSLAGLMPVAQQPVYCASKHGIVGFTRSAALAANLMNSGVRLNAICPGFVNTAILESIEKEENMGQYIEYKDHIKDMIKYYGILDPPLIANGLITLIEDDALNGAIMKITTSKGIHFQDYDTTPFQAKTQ
Test: hPGDH inhibitor screening biochemical assay
Conditions: 10 nM enzyme, fluorescence ex/em 340/485 nm
pIC50: −log10 of the molar value.

Known results for compounds:
compound="CCOC(=O)Nc1cncc(-n2ccc3cc([S+]([O-])CC4CCC4)cnc32)c1 (stereo not shown)" experimental_target="15-PGDH/HPGD (Homo sapiens)" test_result="> 7.00"
compound="COC(C)(C)CC[S+]([O-])c1cnc2c(cnn2-c2cccc(-c3nnc[nH]3)c2)c1 (single isomer, unassigned) [Compound 104A]" experimental_target="15-PGDH/HPGD (Homo sapiens)" test_result="> 7.00"
compound="[O-][S+](c1cnc2c(cnn2-c2ccc(-c3nnc[nH]3)cc2)c1)C1CCOCC1 (stereo not shown)" experimental_target="15-PGDH/HPGD (Homo sapiens)" test_result="6.00 to 7.00"

Ask: Entry COCC1CC([S+]([O-])c2cnc3c(cnn3-c3cccc(-c4nnc[nH]4)c3)c2)C1 (stereo not shown) [Compound 109D] , system 15-PGDH/HPGD (Homo sapiens): what pIC50 was measured?
Reply: ≤ 6.00
